B1: Twister Ribozyme (parent)
chain: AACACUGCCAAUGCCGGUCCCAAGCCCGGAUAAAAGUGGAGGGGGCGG

- Variants of: B1
- Run Description: self-cleavage, relative activity (ratio to wild type); higher = more cleavage; co-transcriptional
Reported values of self-cleavage for individual entries
Format: numeric value only, no unit, no commentary.

[[record]]
residue_codes = "AACACUGCCAAUGCCGGUACGAAGCCCGGAUAAAAGUGGAGGGGGCGG"
value_kind = "self-cleavage"
result = 0.0812

[[record]]
residue_codes = "AACACUGGCAAUGCCGGUCCCAAGCCCGGAUAAAAGUGGCGGGGGCGG"
value_kind = "self-cleavage"
result = 0.157

[[record]]
residue_codes = "AACACUGCCAAUGCCGGUCCAAAGACCGGAUAAAAGUGGAGGGGGCGG"
value_kind = "self-cleavage"
result = 0.101

[[record]]
residue_codes = "AACACUGCCAAUGCCGGUCCCAAGCCCGGAUAAAAGUGGAGGCGGCGU"
value_kind = "self-cleavage"
result = 0.138

[[record]]
residue_codes = "AACACUGCCAAUGCCGGUCCCAAGCCCGGAUAAAAGUGGAGGCGGGGG"
value_kind = "self-cleavage"
result = 0.174


Identify measured self-cleavage corresponding to AACACUGCCAAUGCCGGUCCCAAGCCCGGAUAAAAGUUGAGGGGGCCG
0.228

Identify measured self-cleavage corresponding to AACACUGCCAAUGCCGGUCCCAAGCCCGGAUAAAAGUCGUGGGGGCGG
0.129

Identify measured self-cleavage corresponding to AGCACGGCCAAUGCCGGUCCCAAGCCCGGAUAAAAGUGGAGGGGGCGG
0.161
